These data points were gathered from the supplement of paper PMC10126150.

Tested on: ATP;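 also: ATP exposure 15 min at 22 °C before imaging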
protocol: switch fluorescence ratio, 500 uM ATP over buffer (Cy3 cluster intensity, sum of 5 cycles each) (fold (ratio)); higher = stronger signal-on switching upon ATP binding; sequences stand for … in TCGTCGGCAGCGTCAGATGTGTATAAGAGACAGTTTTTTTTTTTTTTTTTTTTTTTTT…TC
test_context: aptamer strand: ATP DNA aptamer (quencher-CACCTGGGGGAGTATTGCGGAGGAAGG + anchor), 100 nM annealed; ATP concentration: 500 uM
measured_metric: switch fluorescence ratio
The reply should be a number, written without any unit.

Q: // query switch fluorescence ratio value for entry GGGAAATGTG
Ans: 1

Q: Name the reported switch fluorescence ratio value associated with the sequence ACATGGGCTA
Ans: 1.09

Q: Would you kindly share the measured switch fluorescence ratio for CGGGTTGGGT ?
Ans: 1.01

Q: # input sequence: TTTCTCGTAG ; wanted: its switch fluorescence ratio
Ans: 0.991

Q: Give its switch fluorescence ratio value. Item: GGCCAAGGGA
Ans: 1.02

Q: I am curious: what switch fluorescence ratio value has been reported for ATGGGCAGTC ?
Ans: 1.21

Q: // switch fluorescence ratio lookup, key: TCCAATTGCG
Ans: 0.953

Q: Please give the measured switch fluorescence ratio for this sequence: AAGAAGCTGA
Ans: 0.972

Q: Look up switch fluorescence ratio for this sequence: AAGCTCAATC
Ans: 1.05

Q: Given the entry TCAAGTTTTC , report its measured switch fluorescence ratio.
Ans: 0.987

Q: Query: switch fluorescence ratio; subject: GGTATTTAAA
Ans: 0.982

Q: # get_value(readout='switch fluorescence ratio', item= ATGGGATGGC )
Ans: 0.97

Q: Any idea what switch fluorescence ratio was measured for CGTGTAGTCC ?
Ans: 1.1

Q: Using the record for TATAAAAAAA , report its switch fluorescence ratio.
Ans: 1.02

Q: Give the measured switch fluorescence ratio of AGTCCTGGCG .
Ans: 1.07

Q: Suppose we examine the sequence TGGGTTACGG ; what switch fluorescence ratio value has been reported?
Ans: 0.983
